From: the supplement of paper PMC8617591

# Tested on: Mycobacterium tuberculosis Erdman (autoluminescent)
# protocol.notes: FIC50 (Loewe) at 50% inhibition (log2); higher = more antagonistic
# condition.info: in vitro model: butyrate; time point: constant (~7 days, model-specific)
Please enter true (1) where FIC50 is greater than or equal to 0.2, and false (0) where it is lower.

[[record]]
molecule = "CC(C)/N=c1\\cc2n(-c3ccc(Cl)cc3)c3ccccc3nc-2cc1Nc1ccc(Cl)cc1 [clofazimine] + NNC(=O)c1ccncc1 [isoniazid]"
label_class = "true (1)"

[[record]]
molecule = "CC(C)/N=c1\\cc2n(-c3ccc(Cl)cc3)c3ccccc3nc-2cc1Nc1ccc(Cl)cc1 [clofazimine] + NC(=O)c1cnccn1 [pyrazinamide]"
label_class = "false (0)"

[[record]]
molecule = "NNC(=O)c1ccncc1 [isoniazid] + CO[C@H]1/C=C/O[C@@]2(C)Oc3c(C)c(O)c4c(O)c(c(/C=N/N5CCN(C6CCCC6)CC5)c(O)c4c3C2=O)NC(=O)/C(C)=C\\C=C\\[C@H](C)[C@H](O)[C@@H](C)[C@@H](O)[C@@H](C)[C@H](OC(C)=O)[C@@H]1C [rifapentine]"
label_class = "true (1)"

[[record]]
molecule = "CC[C@@H](CO)NCCN[C@@H](CC)CO [ethambutol] + CO[C@H]1/C=C/O[C@@]2(C)Oc3c(C)c(O)c4c(O)c(c(/C=N/N5CCN(C6CCCC6)CC5)c(O)c4c3C2=O)NC(=O)/C(C)=C\\C=C\\[C@H](C)[C@H](O)[C@@H](C)[C@@H](O)[C@@H](C)[C@H](OC(C)=O)[C@@H]1C [rifapentine]"
label_class = "true (1)"

[[record]]
molecule = "COc1nc2ccc(Br)cc2cc1[C@@H](c1ccccc1)[C@@](O)(CCN(C)C)c1cccc2ccccc12 [bedaquiline] + COc1c(N2C[C@@H]3CCCN[C@@H]3C2)c(F)cc2c(=O)c(C(=O)O)cn(C3CC3)c12 [moxifloxacin]"
label_class = "true (1)"


----------
# Test system: Mycobacterium tuberculosis Erdman (autoluminescent)
# protocol.notes: Einf, fitted maximum growth inhibition of three-drug combination (fraction); higher = stronger maximal inhibition
# condition.info: in vitro model: butyrate; time point: constant (~7 days, model-specific)
observable: Einf

[[record]]
molecule = "CC[C@@H](CO)NCCN[C@@H](CC)CO [ethambutol] + NC(=O)c1cnccn1 [pyrazinamide] + CO[C@H]1/C=C/O[C@@]2(C)Oc3c(C)c(O)c4c(O)c(c(/C=N/N5CCN(C6CCCC6)CC5)c(O)c4c3C2=O)NC(=O)/C(C)=C\\C=C\\[C@H](C)[C@H](O)[C@@H](C)[C@@H](O)[C@@H](C)[C@H](OC(C)=O)[C@@H]1C [rifapentine]"
data_value = 0.911

[[record]]
molecule = "COc1nc2ccc(Br)cc2cc1[C@@H](c1ccccc1)[C@@](O)(CCN(C)C)c1cccc2ccccc12 [bedaquiline] + NNC(=O)c1ccncc1 [isoniazid] + COc1c(N2C[C@@H]3CCCN[C@@H]3C2)c(F)cc2c(=O)c(C(=O)O)cn(C3CC3)c12 [moxifloxacin]"
data_value = 0.94

[[record]]
molecule = "CC[C@@H](CO)NCCN[C@@H](CC)CO [ethambutol] + O=[N+]([O-])c1cn2c(n1)OC[C@@H](OCc1ccc(OC(F)(F)F)cc1)C2 [pretomanid] + NC(=O)c1cnccn1 [pyrazinamide]"
data_value = 0.898

[[record]]
molecule = "O=[N+]([O-])c1cn2c(n1)OC[C@@H](OCc1ccc(OC(F)(F)F)cc1)C2 [pretomanid] + NC(=O)c1cnccn1 [pyrazinamide] + CO[C@H]1/C=C/O[C@@]2(C)Oc3c(C)c(O)c4c(O)c(c(/C=N/N5CCN(C)CC5)c(O)c4c3C2=O)NC(=O)/C(C)=C\\C=C\\[C@H](C)[C@H](O)[C@@H](C)[C@@H](O)[C@@H](C)[C@H](OC(C)=O)[C@@H]1C"
data_value = 0.875

[[record]]
molecule = "COc1nc2ccc(Br)cc2cc1[C@@H](c1ccccc1)[C@@](O)(CCN(C)C)c1cccc2ccccc12 [bedaquiline] + CC(=O)NC[C@H]1CN(c2ccc(N3CCOCC3)c(F)c2)C(=O)O1 [linezolid] + O=[N+]([O-])c1cn2c(n1)OC[C@@H](OCc1ccc(OC(F)(F)F)cc1)C2 [pretomanid]"
data_value = 0.943

